settings: in isopropanol, 283.15 K
result_type: solubility (mole fraction)

Quote solubility (mole fraction) reported for CO[C@@]1(NC(=O)CSCC#N)C(=O)N2C(C(=O)O)=C(CSc3nnnn3C)CS[C@@H]21 please.
6.16e-05

###

conditions: in water, 293.15 K
result_type: solubility (mole fraction)
Keep it simple and answer with nothing but the number.

Quick one: give measured solubility (mole fraction) for CO[C@@]1(NC(=O)CSCC#N)C(=O)N2C(C(=O)O)=C(CSc3nnnn3C)CS[C@@H]21
3.46e-05

###

settings: in isopropanol, 303.15 K
result_type: solubility (mole fraction)
Give only the figure.

Return the recorded solubility (mole fraction) value; entry: CO[C@@]1(NC(=O)CSCC#N)C(=O)N2C(C(=O)O)=C(CSc3nnnn3C)CS[C@@H]21
0.000174
